molecular target: T1, human Bcl-xL ΔC24 (human, UniProt Q07817 1-209); assay: solution competition on Biacore, immobilised m wtBimBH3
T1 construct: Expressed as GST fusion and cleaved off the glutathione column; also called hBcl-xL ΔC24
T1 sequence (Q07817 other isoform, or with tags, fused parts or gaps mutant limits assumed): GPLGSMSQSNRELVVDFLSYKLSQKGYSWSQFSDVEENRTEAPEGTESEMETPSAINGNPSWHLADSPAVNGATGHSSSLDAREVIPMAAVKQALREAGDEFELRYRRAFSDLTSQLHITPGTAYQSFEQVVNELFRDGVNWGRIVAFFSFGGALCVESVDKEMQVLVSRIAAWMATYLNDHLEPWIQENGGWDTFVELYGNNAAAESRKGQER
// values below are reported IC50

Look over these answered cases.
PAELEVECATQLRRFGDKLNFRQKLL (also called NoxaBH3; wt NoxaBH3) [Noxa (18-43) BH3 peptide, human]: > 100000 nM
PAELEVECATQLRRIGDKLNFRQKLL (also called Noxa m2; F32I) [Noxa (18-43) mt2]: 1100 nM
PAELEVECATQLRRIGDELNFRQKLL (also called Noxa m3 (peptide); double mutant K35E F32I) [Noxa (18-43) mt3]: 110 nM

Now look at this one.
So what's the measured IC50 for this one? PAELEVECATQLRRFGDELNFRQKLL (also called Noxa m1; K35E) [Noxa (18-43) mt1]
5800 nM

src = patent US20080027145A1
